Assay: Clearance in Sprague-Dawley rat at 5 mg/kg, iv measured after 48 hrs by LC-MS/MS analysis
Format: ADME, organism-based
Conditions: in vivo
Quantity Measured: clearance (mL/min/kg)
I only need the number, in mL/min/kg, no unit after it.

In the examples that follow, each entry is paired with its recorded clearance.
{"Query Smiles": "CC#CCn1c(N2CCC[C@@H](N)C2)nc2c1c(=O)n(Cc1ccc(Cl)cc1C(=O)O)c(=O)n2C", "Obs Value": 8.83}
{"Query Smiles": "CC#CCn1c(N2CCC[C@@H](N)C2)nc2c1c(=O)n(Cc1cc(Cl)ccc1C(=O)O)c(=O)n2C", "Obs Value": 17.2}
{"Query Smiles": "CC#CCn1c(N2CCC[C@@H](N)C2)nc2c1c(=O)n(Cc1cc(OC)ccc1C(=O)O)c(=O)n2C", "Obs Value": 21.7}

[Q] I'd like to know its clearance. The molecule in question is CC#CCn1c(N2CCC[C@@H](N)C2)nc2c1c(=O)n(Cc1ccc(Br)cc1C(=O)O)c(=O)n2C
[A] 3.67

* * *

compounds and their reported remaining at 2 h, 1 µM
Assay: Stability in PBS at pH 7.4 assessed as compound remaining at 1 uM after 120 mins by LC-MS/MS analysis relative to control
Type: physicochemical
Details: read-out: Stability
Unit % implied. Number only.

{"Query Smiles": "CC#CCn1c(N2CCC[C@@H](N)C2)nc2c1c(=O)n(Cc1ccc(Br)cc1C(=O)OCc1oc(=O)oc1C)c(=O)n2C", "Unit Of Measure": "%", "Obs Value": 8.32}
{"Query Smiles": "CC#CCn1c(N2CCC[C@@H](N)C2)nc2c1c(=O)n(Cc1ccc(Cl)cc1C(=O)OCc1oc(=O)oc1C)c(=O)n2C", "Unit Of Measure": "%", "Obs Value": 12}
{"Query Smiles": "CC#CCn1c(N2CCC[C@@H](N)C2)nc2c1c(=O)n(Cc1ccc(Br)cc1C(=O)O)c(=O)n2C", "Unit Of Measure": "%", "Obs Value": 99.2}

[Q] Fill in: remaining at 2 h, 1 µM of CC#CCn1c(N2CCC[C@@H](N)C2)nc2c1c(=O)n(Cc1ccc(Cl)cc1C(=O)O)c(=O)n2C is ___
[A] 101

[Q] Check CC#CCn1c(N2CCC[C@@H](N)C2)nc2c1c(=O)n(Cc1ccc(Br)cc1C(=O)OCC)c(=O)n2C too.
[A] 98.4

[Q] Ok, now CC#CCn1c(N2CCC[C@@H](N)C2)nc2c1c(=O)n(Cc1ccc(Cl)cc1C(=O)OC)c(=O)n2C
[A] 101

[Q] What about this compound? CC#CCn1c(N2CCC[C@@H](N)C2)nc2c1c(=O)n(Cc1ccc(Cl)cc1C(=O)OCC)c(=O)n2C
[A] 99.5

[Q] Field entry: CC#CCn1c(N2CCC[C@@H](N)C2)nc2c1c(=O)n(Cc1ccc(Br)cc1C(=O)OC)c(=O)n2C
[A] 99.4

* * *

Examples of molecules with documented viability at 48 h, 50 µM follow.
Assay: Cytotoxicity against human LO2 cells assessed as cell viability at 50 uM after 48 hrs by MTT assay
Type: cell-based, L02
Conditions: read-out: Activity

{"Query Smiles": "CC#CCn1c(N2CCC[C@@H](N)C2)nc2c1c(=O)n(Cc1ccc(Br)cc1C(=O)O)c(=O)n2C", "viability at 48 h, 50 µM": "> 90%"}

Below: the item to evaluate.
[Q] # input molecule: CC#CCn1c(N2CCC[C@@H](N)C2)nc2c1c(=O)n(Cc1ccc(Cl)cc1C(=O)O)c(=O)n2C ; wanted: its viability at 48 h, 50 µM
[A] > 90%

* * *

Test: Oral bioavailability in Sprague-Dawley rat at 10 mg/kg via gavage after 48 hrs by LC-MS/MS analysis
Assay type: ADME, organism-based
Settings: in vivo
Quantity Measured: bioavailability (%)
Reply with just the number (in %).

[Q] // bioavailability lookup, key: CC#CCn1c(N2CCC[C@@H](N)C2)nc2c1c(=O)n(Cc1ccc(Cl)cc1C(=O)O)c(=O)n2C
[A] 6.76

* * *

Assay: Cmax in Sprague-Dawley rat at 5 mg/kg, iv measured after 48 hrs by LC-MS/MS analysis
Assay type: ADME, organism-based
Parameters: dose 5 mg/kg, route intravenous
Conditions: in vivo
The entries below come with measured Cmax values attached.
Give just the numeric value; ng/mL need not be written.

The following compounds have reported results that may help.
{"Query Smiles": "CC#CCn1c(N2CCC[C@@H](N)C2)nc2c1c(=O)n(Cc1cc(OC)ccc1C(=O)O)c(=O)n2C", "Quantity Measured": "Cmax", "Obs Value": 12200}
{"Query Smiles": "CC#CCn1c(N2CCC[C@@H](N)C2)nc2c1c(=O)n(Cc1cc(Cl)ccc1C(=O)O)c(=O)n2C", "Quantity Measured": "Cmax", "Obs Value": 14600}
{"Query Smiles": "CC#CCn1c(N2CCC[C@@H](N)C2)nc2c1c(=O)n(Cc1ccc(Br)cc1C(=O)O)c(=O)n2C", "Quantity Measured": "Cmax", "Obs Value": 65500}

[Q] # get_value(readout='Cmax', item= CC#CCn1c(N2CCC[C@@H](N)C2)nc2c1c(=O)n(Cc1ccc(Cl)cc1C(=O)O)c(=O)n2C )
[A] 30600

* * *

Experiment: Stability in Sprague-Dawley rat plasma assessed as drug degradation at 1 uM after 120 mins by LC-MS/MS analysis relative to control relative to control
Type: ADME, cell-free
Settings: read-out: Drug degradation
Catalogue of metabolised at 2 h, 1 µM readings, one per entry.
Please respond with the number in % and leave the unit unwritten.

{"Query Smiles": "CC#CCn1c(N2CCC[C@@H](N)C2)nc2c1c(=O)n(Cc1ccc(Cl)cc1C(=O)OCc1oc(=O)oc1C)c(=O)n2C", "metabolised at 2 h, 1 µM [%]": 100}

[Q] Name the recorded metabolised at 2 h, 1 µM for CC#CCn1c(N2CCC[C@@H](N)C2)nc2c1c(=O)n(Cc1ccc(Br)cc1C(=O)OCc1oc(=O)oc1C)c(=O)n2C .
[A] 100

* * *

Test: Stability in Sprague-Dawley rat plasma assessed as drug degradation at 1 uM after 5 mins by LC-MS/MS analysis relative to control relative to control
Assay type: ADME, cell-free
Conditions: read-out: Drug degradation
Entries annotated with measured metabolised at 5 min, 1 µM
# number then unit; no other words

{"Query Smiles": "CC#CCn1c(N2CCC[C@@H](N)C2)nc2c1c(=O)n(Cc1ccc(Br)cc1C(=O)OCc1oc(=O)oc1C)c(=O)n2C", "metabolised at 5 min, 1 µM": "50%"}

# context switch: different compound, same metabolised at 5 min, 1 µM
[Q] Quick check: metabolised at 5 min, 1 µM of CC#CCn1c(N2CCC[C@@H](N)C2)nc2c1c(=O)n(Cc1ccc(Cl)cc1C(=O)OCc1oc(=O)oc1C)c(=O)n2C ?
[A] 50%

* * *

Test: Half life in Sprague-Dawley rat at 5 mg/kg, iv measured after 48 hrs by LC-MS/MS analysis
Type: ADME, organism-based
Settings: in vivo
half-life: recorded values
The figure you give is taken to be in h; do not add the unit.

{"Query Smiles": "CC#CCn1c(N2CCC[C@@H](N)C2)nc2c1c(=O)n(Cc1cc(Cl)ccc1C(=O)O)c(=O)n2C", "Quantity Measured": "half-life", "Obs Value": 0.82}
{"Query Smiles": "CC#CCn1c(N2CCC[C@@H](N)C2)nc2c1c(=O)n(Cc1cc(OC)ccc1C(=O)O)c(=O)n2C", "Quantity Measured": "half-life", "Obs Value": 0.26}
{"Query Smiles": "CC#CCn1c(N2CCC[C@@H](N)C2)nc2c1c(=O)n(Cc1ccc(Cl)cc1C(=O)O)c(=O)n2C", "Quantity Measured": "half-life", "Obs Value": 5.24}

Now turn to the next molecule.
[Q] Fill in the blank: the reported half-life of CC#CCn1c(N2CCC[C@@H](N)C2)nc2c1c(=O)n(Cc1ccc(Br)cc1C(=O)O)c(=O)n2C is ____.
[A] 5.75

* * *

Assay: Drug degradation in PBS at pH 7.4 at 1 uM after 120 mins by LC-MS/MS analysis relative to control
Assay type: physicochemical
Details: read-out: Drug degradation
Quantity Measured: degraded at 2 h, 1 µM (%)
# unit: % | format: bare number

{"Query Smiles": "CC#CCn1c(N2CCC[C@@H](N)C2)nc2c1c(=O)n(Cc1ccc(Br)cc1C(=O)OCc1oc(=O)oc1C)c(=O)n2C", "degraded at 2 h, 1 µM, %": 100}

Please examine the following record next.
[Q] GET /values?readout=degraded at 2 h, 1 µM&item= CC#CCn1c(N2CCC[C@@H](N)C2)nc2c1c(=O)n(Cc1ccc(Cl)cc1C(=O)OCc1oc(=O)oc1C)c(=O)n2C
[A] 100
